Measurement notes: Antioxidant activity assessed as […] scavenging activity by measuring NaNO2 at 500 uM by spectrophotometry
Assay type: physicochemical
Assay metric: Activity (µM)
Answers are plain numbers, in µM.

1. CC1(C)OCC(C[Te]c2ccccc2)O1 (centres undefined); 44.49
2. CC1(C)OCC(CO)O1 (centres undefined); 54.47
3. CC1(C)OCC(C[Se]c2ccccc2)O1 (centres undefined); 49.65

As a next step, examine the compound that follows.
Look up Activity: CC1(C)OCC(CSc2ccccc2)O1 (centres undefined)
49.68

* * *

What Activity was measured for each of the following?
Measurement notes: Antioxidant activity assessed as […] scavenging activity by measuring NaNO2 at 100 uM by spectrophotometry
Format: physicochemical
Answers are plain numbers, in µM.

1. CC1(C)OCC(CSc2ccccc2)O1 (centres undefined); 50.48
2. CC1(C)OCC(CO)O1 (centres undefined); 52.22

Give one value of Activity per listed molecule.
1. CC1(C)OCC(C[Te]c2ccccc2)O1 (centres undefined)
2. CC1(C)OCC(C[Se]c2ccccc2)O1 (centres undefined)

54.93
51.95

* * *

Measurement notes: Antioxidant activity assessed as inhibition of Fe2+/ascorbic acid-induced linoleic acid peroxidation at 50 uM by spectrophotometry relative to control
Assay type: physicochemical
Set-up: scale not given: the % may be the effect or the level left
Assay metric: Activity (%)
Answers are plain numbers, in %.

The following compounds have reported results that may help.
1) CC1(C)OCC(C[Se]c2ccccc2)O1 (centres undefined); 89.97
2) CC1(C)OCC(C[Te]c2ccccc2)O1 (centres undefined); 43.34

Batch request: Activity per item, same order as input.
1. CC1(C)OCC(CO)O1 (centres undefined)
2. CC1(C)OCC(CSc2ccccc2)O1 (centres undefined)

72.35
76.51

* * *

Measurement notes: Antioxidant activity assessed as DPPH radical scavenging activity at 50 uM by spectrophotometry relative to control
Type: physicochemical
Kindly state Activity for each of the entries shown.
One number for each entry, in %.

1. CC1(C)OCC(CO)O1 (centres undefined); 0.98

For each of the compounds below, state Activity.
1. CC1(C)OCC(CSc2ccccc2)O1 (centres undefined)
2. CC1(C)OCC(C[Se]c2ccccc2)O1 (centres undefined)
3. CC1(C)OCC(C[Te]c2ccccc2)O1 (centres undefined)

1: 1.07; 2: 0.63; 3: 11.08

* * *

Measurement notes: Antioxidant activity assessed as DPPH radical scavenging activity by spectrophotometry relative to control
Format: physicochemical
Assay metric: IC50
Record the result as a number with its unit.

Please report the recorded IC50 for CC1(C)OCC(C[Te]c2ccccc2)O1 (stereo unspecified) .
309 µM

* * *

Measurement notes: Antioxidant activity assessed as ABTS radical scavenging activity by spectrophotometry relative to control
Format: physicochemical
Assay metric: IC50 (µM)
One number for each entry, in µM.

// query IC50 value for entry CC1(C)OCC(C[Te]c2ccccc2)O1 (stereo unspecified)
24.5

* * *

Measurement notes: Antioxidant activity assessed as […] scavenging activity by measuring NaNO2 at 10 uM by spectrophotometry
Format: physicochemical
Exercise: state measured Activity for each of the compounds provided.
Give bare numbers, in µM.

Observe how each entry below is paired with its result.
1. CC1(C)OCC(C[Te]c2ccccc2)O1 (centres undefined); 64.13
2. CC1(C)OCC(CO)O1 (centres undefined); 56.6

Report Activity for each item below.
1. CC1(C)OCC(C[Se]c2ccccc2)O1 (centres undefined)
2. CC1(C)OCC(CSc2ccccc2)O1 (centres undefined)

1: 54.43; 2: 49.59

* * *

Measurement notes: Antioxidant activity assessed as inhibition of Fe2+/ascorbic acid-induced linoleic acid peroxidation at 500 uM by spectrophotometry relative to control
Type: physicochemical
Set-up: scale not given: the % may be the effect or the level left
Assay metric: Activity (%)
Answers are plain numbers, in %.

The following compounds each have a reported value; give each one's Activity.
1. CC1(C)OCC(C[Te]c2ccccc2)O1 (centres undefined)
2. CC1(C)OCC(C[Se]c2ccccc2)O1 (centres undefined)
3. CC1(C)OCC(CO)O1 (centres undefined)
4. CC1(C)OCC(CSc2ccccc2)O1 (centres undefined)

1. 20.6
2. 81.22
3. 76.4
4. 72.46

* * *

Measurement notes: Antioxidant activity assessed as ABTS radical scavenging activity at 10 uM by spectrophotometry relative to control
Format: physicochemical
Assay metric: Activity (%)
Numbers only, in %.

1) CC1(C)OCC(CSc2ccccc2)O1 (centres undefined); 0.47
2) CC1(C)OCC(C[Se]c2ccccc2)O1 (centres undefined); 0
3) CC1(C)OCC(CO)O1 (centres undefined); 0

# get_value(readout='Activity', item= CC1(C)OCC(C[Te]c2ccccc2)O1 (centres undefined) )
22.72

* * *

Measurement notes: Antioxidant activity assessed as inhibition of Fe2+/ascorbic acid-induced linoleic acid peroxidation at 10 uM by spectrophotometry relative to control
Type: physicochemical
Parameters: scale not given: the % may be the effect or the level left
Assay metric: Activity (%)
Numbers only, in %.

Please give Activity for each item listed below.
1. CC1(C)OCC(CSc2ccccc2)O1 (centres undefined)
2. CC1(C)OCC(C[Se]c2ccccc2)O1 (centres undefined)
3. CC1(C)OCC(C[Te]c2ccccc2)O1 (centres undefined)
4. CC1(C)OCC(CO)O1 (centres undefined)

76.51
86.97
57.39
79.89

* * *

Give Activity for every item shown.
Measurement notes: Antioxidant activity assessed as DPPH radical scavenging activity at 10 uM by spectrophotometry relative to control
Assay type: physicochemical
Give bare numbers, in %.

Below: 3 molecules and their reported Activity.
1. CC1(C)OCC(C[Te]c2ccccc2)O1 (centres undefined); 3.57
2. CC1(C)OCC(C[Se]c2ccccc2)O1 (centres undefined); 0.98
3. CC1(C)OCC(CO)O1 (centres undefined); 0.54

// moving on: another record for Activity
For the molecule CC1(C)OCC(CSc2ccccc2)O1 (centres undefined) , what Activity is on record?
0.01

* * *

Measurement notes: Antioxidant activity assessed as ABTS radical scavenging activity at 100 uM by spectrophotometry relative to control
Type: physicochemical
Record form. Attribute: Activity. Fill in for each entry.
Numbers only, in %.

Give me Activity for each of these molecules, listed below.
1. CC1(C)OCC(C[Te]c2ccccc2)O1 (centres undefined)
2. CC1(C)OCC(CSc2ccccc2)O1 (centres undefined)
3. CC1(C)OCC(CO)O1 (centres undefined)
4. CC1(C)OCC(C[Se]c2ccccc2)O1 (centres undefined)

1: 99.5; 2: 0.36; 3: 1.7; 4: 1.15

* * *

Exercise: state measured Activity for each of the compounds provided.
Measurement notes: Antioxidant activity assessed as inhibition of Fe2+/ascorbic acid-induced linoleic acid peroxidation at 5 uM by spectrophotometry relative to control
Format: physicochemical
Parameters: scale not given: the % may be the effect or the level left
Answers are plain numbers, in %.

Look over these answered cases.
1. CC1(C)OCC(CO)O1 (centres undefined); 66.2
2. CC1(C)OCC(C[Te]c2ccccc2)O1 (centres undefined); 66.29
3. CC1(C)OCC(CSc2ccccc2)O1 (centres undefined); 87.79

Please look at the following compound next.
Reported Activity for CC1(C)OCC(C[Se]c2ccccc2)O1 (centres undefined) : what is it?
94.34

* * *

Measurement notes: Antioxidant activity assessed as ferric ion reducing activity at 10 to 500 uM after 40 mins by spectrophotometry relative to control
Format: physicochemical
Assay metric: Activity

1) CC1(C)OCC(C[Se]c2ccccc2)O1 (centres undefined); Not Active
2) CC1(C)OCC(CO)O1 (centres undefined); Not Active
3) CC1(C)OCC(CSc2ccccc2)O1 (centres undefined); Not Active

* * *

Measurement notes: Antioxidant activity assessed as inhibition of Fe2+/ascorbic acid-induced linoleic acid peroxidation at 1 uM by spectrophotometry relative to control
Format: physicochemical
Set-up: scale not given: the % may be the effect or the level left
Assay metric: Activity (%)
Answers are plain numbers, in %.

Worked examples follow.
1. CC1(C)OCC(C[Se]c2ccccc2)O1 (centres undefined); 88.37
2. CC1(C)OCC(CO)O1 (centres undefined); 72.67
3. CC1(C)OCC(C[Te]c2ccccc2)O1 (centres undefined); 79.46

Turning now to a further record.
Record request: Activity value, item CC1(C)OCC(CSc2ccccc2)O1 (centres undefined)
86.7

* * *

Measurement notes: Antioxidant activity assessed as ABTS radical scavenging activity at 500 uM by spectrophotometry relative to control
Format: physicochemical
Assay metric: Activity (%)
Give bare numbers, in %.

Guide cases for Activity, answers given:
1. CC1(C)OCC(CSc2ccccc2)O1 (centres undefined); 0.08
2. CC1(C)OCC(C[Te]c2ccccc2)O1 (centres undefined); 99.9
3. CC1(C)OCC(CO)O1 (centres undefined); 9.84

Form field: reported Activity of CC1(C)OCC(C[Se]c2ccccc2)O1 (centres undefined)
4.75

* * *

Measurement notes: Antioxidant activity assessed as ABTS radical scavenging activity at 50 uM by spectrophotometry relative to control
Type: physicochemical
Assay metric: Activity (%)
Give bare numbers, in %.

The following compounds have reported results that may help.
1. CC1(C)OCC(C[Se]c2ccccc2)O1 (centres undefined); 1.19
2. CC1(C)OCC(CSc2ccccc2)O1 (centres undefined); 0.15

Value sought for every listed compound: Activity.
1. CC1(C)OCC(C[Te]c2ccccc2)O1 (centres undefined)
2. CC1(C)OCC(CO)O1 (centres undefined)

[90.64, 0.85]
